Just for reference, PubChem BioAssay (NCI) is where these values come from.

Tested on: KM12 colon
run description: NCI tumour cell line growth inhibition, 48 h

{"compound": "CC1(C)CC[C@]2(C(=O)O)CC[C@]3(C)C(=CC[C@@H]4[C@@]5(C)CC[C@H](OC6OC(C(=O)O)C(O)C(O)C6O)C(C)(C)[C@@H]5CC[C@]43C)[C@@H]2C1 (some centres undefined)", "unit info": "µM", "prefix operator": "=", "TGI": 34.7}
{"compound": "COC1CC(Br)(C#N)C1 (centres undefined)", "unit info": "µM", "prefix operator": ">", "TGI": 100}
{"compound": "Cc1c(-c2c(C)c(=O)c3c(C(C)C)c(=O)c(=O)c(C=O)c-3c2=O)c(O)c2c(C=O)c(O)c(O)c(C(C)C)c2c1O", "unit info": "µM", "prefix operator": "=", "TGI": 4.9}
{"compound": "CN(C)c1ccc(/C=C(\\NC(=O)c2ccccc2)C(=O)Nc2ccccc2C(=O)NCc2ccccc2)cc1", "unit info": "µM", "prefix operator": ">", "TGI": 100}

---

Tested on: TK-10 renal
run description: NCI tumour cell line growth inhibition, 48 h

{"compound": "CC(=O)OCCn1c(Cc2ccc(C)cc2)nn(C(C)=O)c1=O", "TGI": "> 100 µM"}
{"compound": "Nc1nc2ccc(NCc3ccc(C(=O)NC(CCC(=O)O)C(=O)O)cc3)cc2c(=O)[nH]1 (centres undefined)", "TGI": "> 100 µM"}
{"compound": "OC1c2[nH]c3ccccc3c2CCN2CCCCC12 (centres undefined)", "TGI": "> 100 µM"}
{"compound": "CC1(C)Cc2c(c3ccccc3c3nc4c(nc23)c2c(c3ccccc34)OC(C)(C)C2)O1", "TGI": "> 100 µM"}

---

Test system: PC-3 prostate
run description: NCI tumour cell line growth inhibition, 48 h
Where a SMILES comes first, the peptide text is derived from it. The star is where a group is joined. Boc = CC(C)(C)OC(=O)*

{"molecule": "CC(=O)OC(C)(C)C1O[C@@]23OC1C[C@@H](C)[C@@H]2[C@@]1(C)CC[C@@]24C[C@@]25CC[C@H](OC2OCC(O)C(O)C2O)C(C)(C)[C@@H]5CCC4[C@]1(C)[C@H]3O (stereo not given in full)", "prefix operator": "=", "TGI / µM": 17.1}
{"molecule": "COc1cc2c(cc1O)CC[C@@H]1[C@@H]2CC[C@]2(C)[C@@H](OCCCN(C)C)CC[C@@H]12", "prefix operator": "=", "TGI / µM": 0.748}
{"molecule": "CC(C)(C)OC(=O)NC(Cc1ccccc1)C(=O)N1CCCC1C(N)=O (stereo not drawn) (Boc-Phe-Pro-NH2; configuration not given here)", "prefix operator": ">", "TGI / µM": 100}
{"molecule": "COC(=O)C1=C(C(=O)OC)SC(=C(Cl)C(=S)Oc2ccccc2N)S1", "prefix operator": ">", "TGI / µM": 50}
{"molecule": "C/C(=N\\[N+](C)(C)C)c1ccc(C)c(C)c1", "prefix operator": ">", "TGI / µM": 100}

---

Some compounds, each annotated with its measured TGI.
Test system: 786-0 renal
run description: NCI tumour cell line growth inhibition, 48 h
measured property: TGI

{"compound": "Oc1ccc(C=NCC2CCCN3CCCCC23)cc1 (stereo unspecified)", "recorded value": "36.7 µM"}
{"compound": "C=CC1(c2ccc(-c3ccccc3)cc2)OCCO1", "recorded value": "> 100 µM"}
{"compound": "CC1(C)O[C@@H](CC/C=C/CO)[C@H](CC/C=C/CO)O1", "recorded value": "> 100 µM"}
{"compound": "C=CCN(N=O)C(=O)NCCCC(NC(C)=O)C(=O)NCc1ccccc1 (stereo unspecified)", "recorded value": "> 100 µM"}
{"compound": "Cc1nc2ccc(Cl)cc2c(Cl)c1CCCl", "recorded value": "> 100 µM"}
{"compound": "CC(C)OP(=O)(OC(C)C)c1ncc(-c2ccc(C(F)(F)F)cc2)c(NC2CCCCCC2)n1", "recorded value": "> 10 µM"}
{"compound": "O=C(/C=C\\Sc1ccccn1)c1cccc(Br)c1", "recorded value": "6.48 µM"}
{"compound": "C/C(=N\\OCC(O)CNC(C)C)c1ccc2c(c1)NC(=O)CS2 (stereo unspecified)", "recorded value": "> 100 µM"}
{"compound": "O=C(Nc1ccc(F)cc1F)c1cc(F)ccc1O", "recorded value": "16.2 µM"}
{"compound": "CC1(C)Cc2c(c3ccccc3c3nc4c(nc23)c2c(c3ccccc34)OC(C)(C)C2)O1", "recorded value": "> 100 µM"}
{"compound": "COC(=O)c1c(C)c2n(c1C)C(=O)C(c1ccccc1)=C2", "recorded value": "> 100 µM"}

---

Tested on: SN12C renal
run description: NCI tumour cell line growth inhibition, 48 h

{"molecule": "Nc1ccccc1NC(=O)c1ccc(CNC(=O)OCc2cccnc2)cc1", "TGI": "> 100 µM"}
{"molecule": "C#C[C@@]1(O)[C@@H](CO)O[C@@H](n2cc(Br)c3c(N)ncnc32)[C@@H]1O", "TGI": "> 100 µM"}
{"molecule": "CCN(CC)c1ccc2cc3ccc(=[N+](CC)CC)cc-3oc2c1", "TGI": "2.33 µM"}
{"molecule": "O=C(c1cccc(F)c1F)N1CCc2c([nH]c3ccccc23)C1c1ccc2c(c1)OCO2 (stereo not given)", "TGI": "91.1 µM"}
{"molecule": "CCOC(=O)CO/N=C\\C1=CC(=O)C2CC1C2(C)C (stereo not given)", "TGI": "> 100 µM"}
{"molecule": "CC(C)OP(=O)(OC(C)C)c1ncc(-c2ccc(C(F)(F)F)cc2)c(NC2CCCCCC2)n1", "TGI": "> 10 µM"}
{"molecule": "COC(=O)C(CCCCCCCC(C(=O)OC)c1nc2n(c1O)C(=N)N=N2)c1nc2n(c1O)C(=N)N=N2 (stereo not given)", "TGI": "> 100 µM"}
{"molecule": "CCOC(=O)/C(=C/c1ccc(C(F)(F)F)cc1)N(CC)CC", "TGI": "> 100 µM"}
{"molecule": "Cc1nc2c(o1)C(=Nc1ccccc1)c1ccccc1C2=Nc1ccccc1", "TGI": "> 100 µM"}
{"molecule": "O=C1c2ccccc2C(=O)N1CCCC(=O)n1cc(F)c(=O)[nH]c1=O", "TGI": "> 100 µM"}
{"molecule": "Cn1cc/c(=N\\N=c2/ccn(C)c3ccccc23)c2ccccc21", "TGI": "33 µM"}
{"molecule": "O=C(O)c1cccc(SSc2cccc(C(=O)O)c2)c1", "TGI": "> 100 µM"}
{"molecule": "N#C/C(=C1C=C/C(=N/O)C(Cl)=C/1)c1ccc(Cl)cc1", "TGI": "8.02 µM"}
{"molecule": "C=CC1(c2ccc(-c3ccccc3)cc2)OCCO1", "TGI": "> 100 µM"}
{"molecule": "Cc1ccc(-c2nc3cc(N4CCN(C)CC4)c(F)cc3[nH]2)cc1", "TGI": "> 100 µM"}
{"molecule": "COC(=O)C(=O)C(C(=O)C(=O)Nc1ccc([N+](=O)[O-])cc1[N+](=O)[O-])c1nc2ccc(Cl)cc2[nH]c1=O (stereo not given)", "TGI": "> 100 µM"}
{"molecule": "OCCCCOC(c1ccccc1)(c1ccccc1)c1ccccc1", "TGI": "> 100 µM"}
{"molecule": "CCN(CC)CC1CCCCN1CC(=O)N1c2ccccc2NC(=O)c2ccccc21 (stereo not given)", "TGI": "> 100 µM"}
{"molecule": "COc1ccc(-c2nc(N3CCCC3)no2)cc1", "TGI": "> 100 µM"}
{"molecule": "O=C1NC(=O)C(c2c[nH]c3cc(Br)ccc23)=C1c1cnc[nH]1", "TGI": "> 100 µM"}
{"molecule": "COc1cc([C@@H]2c3cc4c(c(O[C@@H]5O[C@H]6CO[C@@H](C)O[C@H]6[C@H](O)[C@@H]5O)c3C[C@H]3COC(=O)[C@@H]32)OCO4)cc(OC)c1O", "TGI": "> 100 µM"}
{"molecule": "NC(=S)C1=C(N)Oc2c(c(=O)oc3ccccc23)C1c1ccc(Br)cc1 (stereo not given)", "TGI": "> 100 µM"}
{"molecule": "O=C1CSC(c2cccc(Cl)c2)N1c1ccc(-n2c(-c3ccccc3)nc3ccccc3c2=O)cc1 (stereo not given)", "TGI": "> 100 µM"}
{"molecule": "O=S(=O)(SCCCCSS(=O)(=O)c1ccc(Cl)cc1)c1ccc(Cl)cc1", "TGI": "22.5 µM"}
{"molecule": "CC1(C)[C@@H]2CC[C@@]1(C)C1(SS1=O)C21Cc2ccccc2C1 (stereo not given in full)", "TGI": "35.8 µM"}
{"molecule": "Nc1nc(N)c2nc(CNc3ccc(C(=O)NC(CCC(=O)O)C(=O)O)cc3F)cnc2n1 (stereo not given)", "TGI": "> 100 µM"}
{"molecule": "COc1cc(-c2nn(-c3ccc(NC(=O)NCCNS(=O)(=O)c4ccc(F)cc4)cc3)cc2-c2ccncc2)ccc1Cl", "TGI": "8.44 µM"}
{"molecule": "CC(C)N(Cc1c(F)cccc1F)c1ccc(CO)c(Cl)c1", "TGI": "25.7 µM"}
{"molecule": "O=C(O)/C=C\\C(=O)c1ccc(Cl)cc1", "TGI": "> 100 µM"}
{"molecule": "C=CC[C@@]1(OC(C)=O)C(=O)C(=O)OC1C1COC(C)(C)O1 (stereo not given in full)", "TGI": "32.5 µM"}
{"molecule": "c1ccc2nc(-c3ccc4c(c3)OCO4)ccc2c1", "TGI": "> 100 µM"}
{"molecule": "N#CC1C(=O)C(=O)N(c2ccccc2)C1=O (stereo not given)", "TGI": "> 100 µM"}
{"molecule": "C=Cc1c(C)c(O)cc2c1-c1ccc(O)c(C)c1CC2", "TGI": "43.1 µM"}
{"molecule": "COc1ccc2c(c1)O/C(=C\\c1ncc([N+](=O)[O-])n1C)C2=O", "TGI": "2.09 µM"}
{"molecule": "COc1ccc([C@H]2CC(=O)C[C@H](c3ccc(OC)cc3OC)C23C(=O)c2ccccc2C3=O)c(OC)c1", "TGI": "> 100 µM"}
{"molecule": "O=C1c2c(c(-c3ccccc3)c(-c3ccccc3)c(-c3ccccc3)c2-c2ccccc2)C(=O)N1c1cccc(Br)c1", "TGI": "> 100 µM"}
{"molecule": "CC(=O)OC(C)(C)C1O[C@@]23OC1C[C@@H](C)[C@@H]2[C@@]1(C)CC[C@@]24C[C@@]25CC[C@H](OC2OCC(O)C(O)C2O)C(C)(C)[C@@H]5CCC4[C@]1(C)[C@H]3O (stereo not given in full)", "TGI": "10.7 µM"}
{"molecule": "CC12c3c4cccc3Oc3cc(N)cc(c31)Oc1cc(N)cc(c12)O4", "TGI": "28.6 µM"}
{"molecule": "CCc1n[nH]c(=O)n1N1C(=O)C2CCCCC2C1=O (stereo not given)", "TGI": "> 100 µM"}
{"molecule": "OC1c2[nH]c3ccccc3c2CCN2CCCCC12 (stereo not given)", "TGI": "> 100 µM"}
